Provenance of the data: patent US9309225B2

Here we list compounds with their recorded GI50 when tested on KM12.
One number for each entry, in µM.

Some compounds with recorded GI50:
compound_string: O=C(NCc1cn(Cc2cccc(Oc3ccccc3)c2)nn1)c1cccnc1Nc1ccc(F)cc1
measurement_units: µM
GI50: 5.61

compound_string: COc1ccc(Nc2ncccc2C(=O)NCc2cn(Cc3cccc(Oc4ccccc4)c3)nn2)cc1
measurement_units: µM
GI50: 3.43

compound_string: COc1cc(Nc2ncccc2C(=O)NCc2cn(Cc3cccc(Oc4ccccc4)c3)nn2)cc(OC)c1
measurement_units: µM
GI50: 3.84

compound_string: COc1ccc(Nc2ncccc2C(=O)NCc2cn(Cc3cccc(Oc4ccccc4)c3)nn2)c(OC)c1
measurement_units: µM
GI50: 1.65

compound_string: O=C(NCc1cn(Cc2cccc(Oc3ccccc3)c2)nn1)c1cccnc1Nc1ccccc1
measurement_units: µM
GI50: 3.63

Q: Field request: GI50 | item: O=C(NCc1cn(Cc2cccc(Oc3ccccc3)c2)nn1)c1cccnc1NCc1ccc(Cl)cc1
Result: 3.62
